Record form. Attribute: GI50. Fill in for each entry.
Test system: M19-MEL
Protocol Summary: NCI tumour cell line growth inhibition, 48 h
Activity calls are given as the source filed them. Rule as the data show it: active = GI50 up to about 1.1 µM and inactive = higher.

GI50 for M19-MEL with input O=C(N/C(=C\c1ccc([N+](=O)[O-])cc1)c1nc2ccccc2[nH]1)c1ccccc1 equals > 100 µM (inactive)

Item C/C=C/CC(C)[C@@H](O)[C@H](NC)C(=O)O (stereo not given in full) was tested on M19-MEL; the reported GI50 is > 100 µM (inactive)

Fill in: M19-MEL GI50 for COC(=O)CCC(=O)Nc1ccc(Cl)cc1C = > 100 µM (inactive)

Log: M19-MEL, compound O=C1CC(C[C@H](O)C2CCCCC2O)CC(=O)N1Cc1ccccc1 (stereo not given in full) , GI50 = > 100 µM (inactive)

Per the reported M19-MEL data, O=C(Nc1ccc(Cl)cc1Cl)C1C(=O)N(c2ccc(Cl)cc2Cl)C(=O)/C1=N\Nc1ccc([N+](=O)[O-])cc1[N+](=O)[O-] (stereo not given) has GI50 of 59.3 µM (inactive)
